Recorded values, source patent US9359297B2.

# target: human metabotropic glutamate receptor 5 (hmGluR5) (Homo sapiens)
# Construct: expressed in transfected cells
# measurement-description: Calcium mobilization (FLIPR) assay for negative allosteric modulation, EC80 glutamate, hmGluR5 in HEK 293
# Format: cell-based
# condition-description: HEK293; hmGluR5, inhibition of EC80 glutamate response; read-out: FLIPR maximum inhibition
property-name: Emax

- COc1cccc(N2CC[C@]3(CCC[C@H](NC(=O)c4cccc(F)c4)C3)C2=O)c1 (relative stereo) [Example 130]: 47 to 93%
- Cc1cccc(C(=O)N[C@@H]2CC(F)(F)C[C@@]3(CCN(c4cccc(F)c4)C3=O)C2)n1 (relative stereo) [Example 107]: 47 to 93%
- Cc1cccc(C(=O)N[C@@H]2CCC[C@@]3(CCN(c4ccc(F)cc4)C3=O)C2)n1 [Example 80]: 73 to 95%
- O=C(N[C@H]1CCC[C@]2(CCN(c3cc(-c4ccc(F)cc4)ncn3)C2=O)C1)c1cccc(F)c1 (relative stereo) [Example 88]: 73 to 95%
- Cc1nccc(C(=O)N[C@@H]2C[C@@H](O)C[C@@]3(CCN(c4cc(F)cc(F)c4)C3=O)C2)n1 (relative stereo) [Example 117]: 47 to 93%
- Cc1nccc(C(=O)N[C@H]2CC(F)(F)C[C@]3(CCN(c4cccc(F)c4)C3=O)C2)n1 (single isomer, unassigned) [Example 103]: 47 to 93%

----------
# target: human metabotropic glutamate receptor 5 (hmGluR5) (Homo sapiens)
# Construct: expressed in transfected cells
# measurement-description: Calcium mobilization (FLIPR) assay for negative allosteric modulation, EC80 glutamate, hmGluR5 in HEK 293
# Assay type: cell-based
# condition-description: HEK293; hmGluR5, inhibition of EC80 glutamate response; read-out: FLIPR maximum inhibition
property-name: Emax

* Cc1nccc(N2CC[C@]3(CCC[C@H](NC(=O)c4cccc(Cl)c4)C3)C2=O)n1 (racemic) | 73 to 95%
* O=C(N[C@@H]1CC(F)(F)C[C@@]2(CCN(c3cccc(F)c3)C2=O)C1)c1ccccn1 (single isomer, unassigned) [Example 98] | 88 to 93%
* Cc1cccc(C(=O)N[C@H]2CCC[C@]3(CCN(c4ccnc(C)n4)C3=O)C2)n1 (relative stereo) | 73 to 95%
* Cc1ccc(N2CC[C@]3(CCC[C@H](NC(=O)c4cccc(C)n4)C3)C2=O)cn1 (relative stereo) | 73 to 95%
* Cc1cc(N2CC[C@]3(CCC[C@H](NC(=O)c4cccc(F)c4)C3)C2=O)nc(C)n1 (relative stereo) | 47 to 93%
* Cc1nccc(N2CC[C@@]3(CCC[C@@H](NC(=O)c4cccc(Cl)c4)C3)C2=O)n1 | 47 to 93%
* Cc1nccc(N2CC[C@]3(CCC[C@H](NC(=O)c4nccs4)C3)C2=O)n1 (relative stereo) | 47 to 93%

----------
The reader will find reported Emax values listed item by item below.
# target: human metabotropic glutamate receptor 5 (hmGluR5) (Homo sapiens, UniProt P41594)
# Construct: expressed in transfected cells
# Sequence (P41594 21-1212): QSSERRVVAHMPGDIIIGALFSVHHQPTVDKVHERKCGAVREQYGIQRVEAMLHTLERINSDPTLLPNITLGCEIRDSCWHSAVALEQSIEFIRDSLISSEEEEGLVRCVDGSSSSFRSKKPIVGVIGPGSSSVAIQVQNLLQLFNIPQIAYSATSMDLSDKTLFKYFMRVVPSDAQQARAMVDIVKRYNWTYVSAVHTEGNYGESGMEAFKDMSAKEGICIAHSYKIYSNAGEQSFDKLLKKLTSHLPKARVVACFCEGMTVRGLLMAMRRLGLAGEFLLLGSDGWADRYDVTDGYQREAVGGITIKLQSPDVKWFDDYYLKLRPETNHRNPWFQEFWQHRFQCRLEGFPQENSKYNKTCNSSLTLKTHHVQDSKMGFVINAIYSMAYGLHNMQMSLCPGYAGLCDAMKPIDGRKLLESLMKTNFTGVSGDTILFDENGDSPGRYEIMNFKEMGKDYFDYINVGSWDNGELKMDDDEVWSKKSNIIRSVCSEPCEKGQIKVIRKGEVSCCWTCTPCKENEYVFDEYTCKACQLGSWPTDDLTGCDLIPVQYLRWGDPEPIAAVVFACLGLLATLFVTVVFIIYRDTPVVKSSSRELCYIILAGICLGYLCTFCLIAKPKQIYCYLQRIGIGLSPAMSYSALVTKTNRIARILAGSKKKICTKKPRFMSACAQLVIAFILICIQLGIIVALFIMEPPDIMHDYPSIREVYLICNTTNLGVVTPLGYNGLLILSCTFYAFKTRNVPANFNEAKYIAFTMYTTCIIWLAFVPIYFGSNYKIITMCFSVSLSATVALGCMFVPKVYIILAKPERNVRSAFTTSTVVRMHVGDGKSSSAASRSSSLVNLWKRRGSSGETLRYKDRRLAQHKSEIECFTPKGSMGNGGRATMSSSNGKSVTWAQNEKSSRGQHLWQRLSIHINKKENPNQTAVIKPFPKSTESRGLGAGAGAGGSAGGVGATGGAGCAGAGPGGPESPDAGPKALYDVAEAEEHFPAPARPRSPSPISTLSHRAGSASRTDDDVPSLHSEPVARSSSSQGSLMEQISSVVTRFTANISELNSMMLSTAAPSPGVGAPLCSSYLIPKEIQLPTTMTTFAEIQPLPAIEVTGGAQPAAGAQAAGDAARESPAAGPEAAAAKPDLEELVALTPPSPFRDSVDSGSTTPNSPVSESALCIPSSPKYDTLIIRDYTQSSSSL
# measurement-description: Calcium mobilization (FLIPR) assay for negative allosteric modulation, EC80 glutamate, hmGluR5 in HEK 293
# Format: cell-based
# condition-description: HEK293; hmGluR5, inhibition of EC80 glutamate response; read-out: FLIPR maximum inhibition
property-name: Emax

- O=C(N[C@@H]1CC(F)(F)C[C@@]2(CCN(c3ccc(F)cc3)C2=O)C1)c1ccccn1 (relative stereo): 47 to 93%
- O=C(N[C@H]1CCC[C@]2(CCN(c3cccc(O)c3)C2=O)C1)c1cccc(F)c1 (relative stereo): 47 to 93%
- COc1cc(F)cc(N2CC[C@@]3(CCC[C@@H](NC(=O)c4ccnc(C)n4)C3)C2=O)c1 (relative stereo): 47 to 93%
- Cc1nccc(C(=O)N[C@@H]2CCC[C@@]3(CCN(c4cc(F)cc(F)c4)C3=O)C2)n1: 73 to 95%

----------
# target: human metabotropic glutamate receptor 5 (hmGluR5) (Homo sapiens)
# Construct: expressed in transfected cells
# measurement-description: Calcium mobilization (FLIPR) assay for negative allosteric modulation, EC80 glutamate, hmGluR5 in HEK 293
# Assay type: cell-based
# condition-description: HEK293; hmGluR5, inhibition of EC80 glutamate response; read-out: FLIPR maximum inhibition
property-name: Emax

* Cc1nc(C(=O)N[C@@H]2CCC[C@@]3(CCN(c4cc(F)cc(F)c4)C3=O)C2)cc(=O)[nH]1 | 47 to 93%
* Cc1cc(C(=O)N[C@H]2CCC[C@]3(CCN(c4ccnc(C)n4)C3=O)C2)ccn1 (relative stereo) | 73 to 95%
* Cc1cccc(C(=O)N[C@H]2CCC[C@]3(CCN(c4cc(F)cc(F)c4)C3=O)C2)n1 (single isomer, unassigned) | 73 to 95%
* Cc1nccc(C(=O)N[C@@H]2CC(=O)C[C@@]3(CCN(c4cc(F)cc(F)c4)C3=O)C2)n1 (relative stereo) | 47 to 93%
* O=C(N[C@@H]1C[C@@H](O)C[C@@]2(CCN(c3cccc(F)c3)C2=O)C1)c1cccc(F)c1 (relative stereo) | 47 to 93%
* O=C(N[C@H]1CC(F)(F)C[C@@]2(CCN(c3cccc(F)c3)C2=O)C1)c1ccccn1 (single isomer, unassigned) | 47 to 93%
* Cc1nccc(C(=O)N[C@H]2CCC[C@]3(CCN(c4cccc(C(F)(F)F)n4)C3=O)C2)n1 (relative stereo) | 73 to 95%
* Cc1nccc(C(=O)N[C@@H]2CC(F)(F)C[C@]3(CCN(c4cc(F)cc(F)c4)C3=O)C2)n1 (relative stereo) | 47 to 93%
* Cc1cncc(N2CC[C@]3(CCC[C@H](NC(=O)c4cccc(C)n4)C3)C2=O)c1 (relative stereo) | 73 to 95%
* CCCCC(=O)N[C@@H]1CCC[C@@]2(CCN(c3cc(F)cc(F)c3)C2=O)C1 (relative stereo) | 47 to 93%
* O=C(N[C@H]1CCC[C@]2(CCN(c3cccc(F)c3)C2=O)C1)c1cccc(CO)n1 (relative stereo) | 73 to 95%
* O=C(N[C@@H]1CC(F)(F)C[C@]2(CCN(c3cccc(F)c3)C2=O)C1)c1ccccn1 (single isomer, unassigned) | 47 to 93%
* Cc1nccc(N2CC[C@]3(CCC[C@H](NC(=O)c4cccc(F)c4)C3)C2=O)n1 (relative stereo) | 73 to 95%
* O=C(N[C@H]1CCC[C@]2(CCN(c3cccc(F)c3)C2=O)C1)c1ccc(F)cn1 (relative stereo) | 73 to 95%
* Cc1nccc(N2CC[C@]3(CCC[C@H](NC(=O)c4ccc(F)cn4)C3)C2=O)n1 (relative stereo) | 47 to 93%
* Cc1nccc(C(=O)N[C@H]2CCC[C@]3(CCN(c4cccc(F)c4)C3=O)C2)n1 (relative stereo) | 73 to 95%
* CC1(F)CC(NC(=O)c2ccccn2)CC2(CCN(c3cccc(F)c3)C2=O)C1 (stereo not drawn) | 47 to 93%
* Cc1nccc(N2CC[C@]3(C[C@H](NC(=O)c4cccc(F)c4)CC(F)(F)C3)C2=O)n1 (single isomer, unassigned) | 47 to 93%
* CCCC(=O)N[C@@H]1CCC[C@@]2(CCN(c3cc(F)cc(F)c3)C2=O)C1 (relative stereo) | 47 to 93%
* Cc1nccc(N2CC[C@@]3(C[C@@H](NC(=O)c4cccc(F)c4)CC(F)(F)C3)C2=O)n1 (single isomer, unassigned) [Example 120] | 47 to 93%
* O=C1C[C@@H](NC(=O)c2cccc(F)c2)C[C@]2(CCN(c3cccc(F)c3)C2=O)C1 (relative stereo) | 47 to 93%

----------
# target: human metabotropic glutamate receptor 5 (hmGluR5) (Homo sapiens, UniProt P41594)
# Construct: expressed in transfected cells
# measurement-description: Calcium mobilization (FLIPR) assay for negative allosteric modulation, EC80 glutamate, hmGluR5 in HEK 293
# Type: cell-based
# condition-description: HEK293; hmGluR5, inhibition of EC80 glutamate response; read-out: FLIPR maximum inhibition
property-name: Emax

* O=C(N[C@H]1CCC[C@]2(CCN(c3cccc(F)c3)C2=O)C1)c1ccncn1 (relative stereo) | 73 to 95%
* Cc1nccc(N2CC[C@]3(CCC[C@H](NC(=O)c4ccc(F)cc4)C3)C2=O)n1 (relative stereo) | 73 to 95%
* Cc1cncc(N2CC[C@]3(CCC[C@H](NC(=O)c4ccnc(C)n4)C3)C2=O)n1 (relative stereo) | 73 to 95%
* Cc1cccc(C(=O)N[C@@H]2CC(=O)C[C@@]3(CCN(c4cccc(F)c4)C3=O)C2)n1 (relative stereo) | 47 to 93%

----------
The reader will find reported Emax values listed item by item below.
# target: human metabotropic glutamate receptor 5 (hmGluR5) (Homo sapiens)
# Construct: expressed in transfected cells
# measurement-description: Calcium mobilization (FLIPR) assay for negative allosteric modulation, EC80 glutamate, hmGluR5 in HEK 293
# Assay type: cell-based
# condition-description: HEK293; hmGluR5, inhibition of EC80 glutamate response; read-out: FLIPR maximum inhibition
property-name: Emax

- Cc1nc(C(=O)N[C@@H]2CCC[C@@]3(CCN(c4cc(F)cc(F)c4)C3=O)C2)cs1 (relative stereo) [Example 144]: 47 to 93%
- Cc1cccc(C(=O)N[C@@H]2C[C@@H](O)C[C@@]3(CCN(c4cccc(F)c4)C3=O)C2)n1 (relative stereo) [Example 126]: 47 to 93%
- O=C(N[C@H]1CCC[C@]2(CCN(c3cccc(F)c3)C2=O)C1)c1nccs1 (relative stereo) [Example 137]: 47 to 93%
- Cn1ccc(N2CCC3(CCCC(NC(=O)c4cccc(F)c4)C3)C2=O)n1 (stereo not drawn) [Example 158]: 47 to 93%
- Cc1cc(C(=O)N[C@@H]2CCC[C@@]3(CCN(c4cccc(F)c4)C3=O)C2)ccn1 [Example 95]: 73 to 95%
- Cc1cccc(C(=O)N[C@H]2CCC[C@]3(CCN(c4cncc(F)c4)C3=O)C2)n1 (relative stereo) [Example 64]: 73 to 95%
